Target: Adenosine receptor A3 (Homo sapiens)
Sequence (P0DMS8 whole entry): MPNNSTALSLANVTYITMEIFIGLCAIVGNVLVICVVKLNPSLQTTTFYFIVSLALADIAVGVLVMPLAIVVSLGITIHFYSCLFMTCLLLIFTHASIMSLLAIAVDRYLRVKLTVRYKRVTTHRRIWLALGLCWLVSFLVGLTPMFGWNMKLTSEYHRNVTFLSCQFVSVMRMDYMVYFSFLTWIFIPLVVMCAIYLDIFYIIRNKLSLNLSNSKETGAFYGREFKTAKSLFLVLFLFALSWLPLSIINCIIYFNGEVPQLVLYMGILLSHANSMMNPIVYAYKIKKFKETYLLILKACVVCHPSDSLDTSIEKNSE
Assay: Displacement of [3H]NECA from human recombinant adenosine A3 receptor expressed in HEK293T cells by scintillation counting
pKi: −log10 of the molar value.
outcome measure: pKi

P = CCCOc1cncc2[nH]c3c(=O)n(CCC)c(=O)n(CCC)c3c12
Q = CCCOc1cnc2c(c1)[nH]c1c(=O)n(CCC)c(=O)n(CCC)c12
Form field 'greater pKi' accepts P or Q ; which applies? In your reply, give the label of the chosen option.
P
(P: 8.42, Q: 6.68)

1 = CCCn1c(=O)c2[nH]c3cccnc3c2n(CCC)c1=O
2 = CCCn1c(=O)c2[nH]c3cnccc3c2n(CCC)c1=O
For the two items 1 and 2 , which reports the higher pKi value? Your answer should be the label attached to the chosen record.
1
(1: 7.77, 2: 6.54)

P = Cn1c(=O)c2[nH]c3cnccc3c2n(C)c1=O
Q = Cn1c(=O)c2[nH]c3cccnc3c2n(C)c1=O
// which entry has the larger pKi value, P or Q ? Please indicate the selected item by its label.
Q
(Q: 7.86, P: 6.28)

###

molecular target: Adenosine receptor A2a (Homo sapiens, UniProt P29274)
Sequence (P29274 whole entry): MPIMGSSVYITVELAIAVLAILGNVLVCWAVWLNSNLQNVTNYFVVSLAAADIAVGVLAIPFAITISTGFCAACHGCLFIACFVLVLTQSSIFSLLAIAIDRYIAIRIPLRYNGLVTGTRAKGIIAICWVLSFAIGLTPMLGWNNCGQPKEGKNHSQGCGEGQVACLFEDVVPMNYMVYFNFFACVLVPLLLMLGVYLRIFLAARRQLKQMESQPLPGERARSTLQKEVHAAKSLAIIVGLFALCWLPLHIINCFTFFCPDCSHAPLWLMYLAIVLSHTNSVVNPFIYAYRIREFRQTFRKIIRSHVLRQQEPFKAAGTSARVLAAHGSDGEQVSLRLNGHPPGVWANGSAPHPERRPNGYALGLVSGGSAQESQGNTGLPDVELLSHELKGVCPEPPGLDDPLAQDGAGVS
pKi: −log10 of the molar value.
outcome measure: pKi

A = Cn1c(=O)c2[nH]c3cnccc3c2n(C)c1=O
B = Cn1c(=O)c2[nH]c3cccnc3c2n(C)c1=O
From the items above, decide which of A and B has the lower pKi reading. Use the label to indicate which entry you chose.
A
(A: 5.00, B: 6.05)

###

target: Adenosine receptor A1 (Homo sapiens); assay: Displacement of [3H]DPCPX from human recombinant adenosine A1 receptor expressed in HEK293T cells by scintillation counting
Sequence (P30542 whole entry): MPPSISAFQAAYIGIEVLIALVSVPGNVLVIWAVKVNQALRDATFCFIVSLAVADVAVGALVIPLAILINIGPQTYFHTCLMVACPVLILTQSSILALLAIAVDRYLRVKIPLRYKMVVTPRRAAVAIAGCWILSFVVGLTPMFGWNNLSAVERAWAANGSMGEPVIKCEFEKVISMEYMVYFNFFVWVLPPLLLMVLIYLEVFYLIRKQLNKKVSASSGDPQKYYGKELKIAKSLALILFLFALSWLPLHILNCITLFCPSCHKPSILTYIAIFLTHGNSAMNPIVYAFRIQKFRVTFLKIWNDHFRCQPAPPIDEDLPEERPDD
outcome measure: Ki (nM)

compound smiles: CCCn1c(=O)c2[nH]c3cccnc3c2n(CCC)c1=O
outcome measure: Ki
test value: 132
--
compound smiles: CCCOc1cnc2c(c1)[nH]c1c(=O)n(CCC)c(=O)n(CCC)c12
outcome measure: Ki
test value: 921
--
compound smiles: Cn1c(=O)c2[nH]c3cccnc3c2n(C)c1=O
outcome measure: Ki
test value: 379

a = CCCn1c(=O)c2[nH]c3cnccc3c2n(CCC)c1=O
b = Cn1c(=O)c2[nH]c3cnccc3c2n(C)c1=O
# returns the entry with the larger Ki; inputs a and b Use the label to indicate which entry you chose.
b
(b: 11700 nM, a: 1410 nM)
